This listing pairs sequences with measured protein stability index.
# assayText: protein stability index of a GFP-peptide fusion (yeast GPS) (PSI 1-4); higher = more stable; sorted into four equal gates, so the index is relative within each strain
# measurementContext: ubr1∆
measurementLabel: protein stability index

[[record]]
residuecodes = "TNGGLFGSGTQNNNTLG [YGR119C/NUP57]"
measurednumber = 3.08

[[record]]
residuecodes = "EGYQNDINTIKLQLSFV [SRP72]"
measurednumber = 3.07

[[record]]
residuecodes = "MKLNISYPVNGSQKTFE [RPS6A]"
measurednumber = 2.94


* * *

# assayText: protein stability index of a GFP-peptide fusion (yeast GPS) (PSI 1-4); higher = more stable; sorted into four equal gates, so the index is relative within each strain
# measurementContext: pdr5∆
Categorize each record by its protein stability index using low-valued: < 2; mid-valued: ≥ 2 and < 3; high-valued: ≥ 3

[[record]]
residuecodes = "NTEQGDSDELGGESMEG [SNM1]"
label = "high-valued"

[[record]]
residuecodes = "ARKHKLKTLVQGPRSYF [RPS27A]"
label = "high-valued"

[[record]]
residuecodes = "ASSWAKKIAQRERRAAL [RPL14A]"
label = "high-valued"

[[record]]
residuecodes = "MMVNNQTMQLIKNVQDL [SRB6]"
label = "mid-valued"

[[record]]
residuecodes = "SKFHFSWNESEDTLSGY [PRP28]"
label = "high-valued"

[[record]]
residuecodes = "GPNNFIWPAEDALRRGM [MED4]"
label = "high-valued"

[[record]]
residuecodes = "QQMIITRLKSLLKPFHV [SIR3]"
label = "mid-valued"

[[record]]
residuecodes = "SSFSKKTLTEEVTKSSH [YIL149C/MLP2]"
label = "mid-valued"

[[record]]
residuecodes = "KVSGVSLLALWKEKKEK [RPS23A]"
label = "low-valued"

[[record]]
residuecodes = "PLLTKRKDLRDKLICSI [DIS3]"
label = "mid-valued"

[[record]]
residuecodes = "RKIKRLEKFLQGRDTSK [SRP72]"
label = "mid-valued"

[[record]]
residuecodes = "NPIDPFNIIREFRSAAG [YDL116W/NUP84]"
label = "high-valued"

[[record]]
residuecodes = "KKNRDKKIFGTGKRLAK [RPS24A]"
label = "high-valued"

[[record]]
residuecodes = "SLTISLYASDYASYFPY [RPN7]"
label = "low-valued"

[[record]]
residuecodes = "VDPKRLAMVIIKEFVDD [DSN1]"
label = "high-valued"

[[record]]
residuecodes = "LDPLEVHMLDFPNIAIR [PRP8]"
label = "mid-valued"

[[record]]
residuecodes = "KKEKLDSGEVDADGDID [DPB4]"
label = "high-valued"

[[record]]
residuecodes = "LTNEISDLKGKLSSAEN [YIL149C/MLP2]"
label = "high-valued"

[[record]]
residuecodes = "TKFKVRGSSSLYTLVIN [RPL38]"
label = "low-valued"

[[record]]
residuecodes = "SQYSTMVNIGLHNLNEY [RGR1]"
label = "mid-valued"

[[record]]
residuecodes = "RRREQTTYSVDDYYKEI [ISW2]"
label = "mid-valued"

[[record]]
residuecodes = "YSLIRETNGYDPFSIYG [SNF5]"
label = "low-valued"

[[record]]
residuecodes = "PIPIAVLDSYTPSTNEP [FAS1]"
label = "mid-valued"

[[record]]
residuecodes = "VSMKANKYQIKKAVKEL [RPL25]"
label = "low-valued"

[[record]]
residuecodes = "VTSMEAAREKKIRELEA [YIL149C/MLP2]"
label = "mid-valued"

[[record]]
residuecodes = "MSGSLSRGNGGKKVLNK [POP1]"
label = "mid-valued"

[[record]]
residuecodes = "INLRKVAEKMNGCSGAD [RPT6]"
label = "mid-valued"

[[record]]
residuecodes = "YKLVNKNKENNTFTWNH [RPN4]"
label = "high-valued"

[[record]]
residuecodes = "SNQFKRSLATAVATPKA [COR1]"
label = "low-valued"

[[record]]
residuecodes = "EDKQNIEINEDNSQDDQ [RRI2]"
label = "high-valued"

[[record]]
residuecodes = "GINKNEEYRKQLDKKNE [SMC1]"
label = "mid-valued"

[[record]]
residuecodes = "YASFNDTFVHVTDLSGK [RPS14B]"
label = "mid-valued"

[[record]]
residuecodes = "QDLILDLKKKLNSLKDE [SMC4]"
label = "mid-valued"

[[record]]
residuecodes = "PEENATEGPSDKKLNLN [SNF12]"
label = "high-valued"

[[record]]
residuecodes = "NHITEFPSIPLPINGPI [RPC31]"
label = "mid-valued"

[[record]]
residuecodes = "TRAGGLGINLVTADTVI [ISW2]"
label = "mid-valued"

[[record]]
residuecodes = "YNDSATSGEAAALGMGL [RPN2]"
label = "mid-valued"

[[record]]
residuecodes = "RVTGGMKVKADRDESSP [RPS14A]"
label = "high-valued"

[[record]]
residuecodes = "PTFSTHAQLLLSDRITG [PRP8]"
label = "low-valued"

[[record]]
residuecodes = "AGKWFDPVLDWRKSDRE [SIR4]"
label = "high-valued"

[[record]]
residuecodes = "AKKHKLNAITLDGDRAD [SMC3]"
label = "mid-valued"

[[record]]
residuecodes = "IKDEIDDPFTKINTRGA [SWI1]"
label = "low-valued"

